Biological target: RELB subunit;p52 subunit (Homo sapiens;Homo sapiens, UniProt Q01201;Q00653 120-401;4-332)
Sequence 1: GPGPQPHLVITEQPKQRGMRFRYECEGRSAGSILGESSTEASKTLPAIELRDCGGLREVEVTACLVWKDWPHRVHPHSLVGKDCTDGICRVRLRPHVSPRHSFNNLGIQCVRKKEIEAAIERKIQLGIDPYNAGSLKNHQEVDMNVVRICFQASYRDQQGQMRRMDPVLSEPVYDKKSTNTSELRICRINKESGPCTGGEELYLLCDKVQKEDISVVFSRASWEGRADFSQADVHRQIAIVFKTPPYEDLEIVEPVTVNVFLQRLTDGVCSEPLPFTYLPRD
Sequence 2: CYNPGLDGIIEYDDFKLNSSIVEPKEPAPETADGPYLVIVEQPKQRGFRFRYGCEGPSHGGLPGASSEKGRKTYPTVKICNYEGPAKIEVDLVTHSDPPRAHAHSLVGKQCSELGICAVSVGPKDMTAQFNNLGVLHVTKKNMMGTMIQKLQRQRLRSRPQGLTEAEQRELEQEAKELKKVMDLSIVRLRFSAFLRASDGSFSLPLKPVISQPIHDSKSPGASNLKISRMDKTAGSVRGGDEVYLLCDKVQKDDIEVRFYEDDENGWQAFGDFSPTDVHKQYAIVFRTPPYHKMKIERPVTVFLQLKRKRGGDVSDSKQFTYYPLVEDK
Test: protein binding microarray; high values mean tight binding
Settings: dsDNA, one strand shown

sequence text	binding signal (z-score)
AGATGGTTCCT	-0.835
GAGGGCACCCT	-0.795
GAGTGCCCCCT	1.16

###

biological target: RELA (p65) subunit of heterodimer;p52 subunit (Homo sapiens;Homo sapiens, UniProt Q04206;Q00653 1-307;4-332); assay: protein binding microarray; high values mean tight binding; settings: dsDNA, one strand shown
metric: binding signal (z-score)

sequence text	uom	value reported
CAGAGTGCCCT	z-score	-0.964
AGATGGCTCCC	z-score	-0.797
AAGTGGGCCCT	z-score	-0.714
CGATAGCCCCC	z-score	0.57
GGATGCATCCC	z-score	-0.685

###

Molecular target: RELB subunit;p52 subunit (Homo sapiens;Homo sapiens, UniProt Q01201;Q00653 120-401;4-332)
Sequence 1: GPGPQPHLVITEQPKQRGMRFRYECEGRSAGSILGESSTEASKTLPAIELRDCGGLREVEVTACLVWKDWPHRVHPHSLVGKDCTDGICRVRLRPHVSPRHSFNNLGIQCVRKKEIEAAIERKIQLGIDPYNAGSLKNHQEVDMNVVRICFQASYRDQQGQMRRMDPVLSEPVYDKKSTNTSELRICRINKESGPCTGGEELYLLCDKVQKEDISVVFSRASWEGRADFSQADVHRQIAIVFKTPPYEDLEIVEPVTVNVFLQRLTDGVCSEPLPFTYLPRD
Sequence 2: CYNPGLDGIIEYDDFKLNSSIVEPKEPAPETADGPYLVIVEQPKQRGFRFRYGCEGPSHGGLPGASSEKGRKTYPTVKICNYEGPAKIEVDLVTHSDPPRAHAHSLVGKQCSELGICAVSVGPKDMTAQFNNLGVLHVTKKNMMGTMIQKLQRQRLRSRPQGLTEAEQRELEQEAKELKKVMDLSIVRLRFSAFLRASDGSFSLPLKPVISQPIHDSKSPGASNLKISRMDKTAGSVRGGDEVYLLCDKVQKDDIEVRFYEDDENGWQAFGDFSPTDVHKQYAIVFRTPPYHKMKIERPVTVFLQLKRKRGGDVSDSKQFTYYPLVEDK
Experiment: protein binding microarray; high values mean tight binding
Conditions: dsDNA, one strand shown
The reader will find reported binding signal values listed item by item below.

sequence text	binding signal [z-score]
CGAAAGTTCCT	-0.709
GAGAAGATCCC	-0.387
AGGGGATCCCT	1.57
CGAAAGGCCCT	-0.6
GAAAAGTCCCT	2.22
AAAGAAGTCCT	-0.875
GGGTGTTTCCT	1.16
CAGAGACCCCC	0.502
AGAGGAATCCC	0.269
CGAGTTCTCCC	0.182
AAGGTCCTCCT	-0.687
CAGAATTCCCC	2.21
AGATGCGCCCT	-0.804
AGGTAGGCCCT	-0.561
CAGAAAGTCCT	-0.785
AGGTTTGTCCC	0.621
GAGTTGCCCCC	0.947
GAAGATGCCCC	0.376
GGATGATTCCT	-0.913
CGGGTGCCCCC	1.05
CAGAAGTCCCT	1.86
CGATTAATCCC	-0.161
AGAATCCCCCC	2.51
